# assay_procedure: Antiplatelet aggregation activity against adenosine diphosphate-induced human platelet rich plasma assessed as inhibition of platelet aggregation by turbidimetric method
# Format: functional
# conditions: Homo sapiens, Platelet, Plasma
pIC50: −log10 of the molar value.
readout: pIC50

Request the reported pIC50 associated with O=C(O)CC[C@H](NC(=O)c1cccc(-c2ccccc2)n1)C(=O)N1CCN(C(=O)OC2CCCCC2)CC1
< 4.00

Request the reported pIC50 associated with CC(C)CN1CCN(C(=O)[C@H](CCC(=O)O)NC(=O)c2cccc(-c3ccccc3)n2)CC1
< 4.00

Request the reported pIC50 associated with CCCN(CCC)c1cc(C(=O)N[C@@H](CCC(=O)O)C(=O)N2CCN(C(=O)OCC)CC2)nc(-c2ccccc2)c1
< 4.00

Request the reported pIC50 associated with CCCCNC(=O)N1CCN(C(=O)[C@H](CCC(=O)O)NC(=O)c2cccc(-c3ccccc3)n2)CC1
< 4.00

====

# assay_procedure: Antiplatelet aggregation activity against adenosine diphosphate-induced human platelet rich plasma assessed as inhibition of platelet aggregation by turbidimetric method
# Type: functional
# conditions: Homo sapiens, Platelet, Plasma
For each of the compounds below, state its IC50.

Request the reported IC50 associated with CCCS(=O)(=O)N1CCN(C(=O)[C@H](CCC(=O)O)NC(=O)c2cccc(-c3ccccc3)n2)CC1
> 100 µM

Request the reported IC50 associated with O=C(O)CC[C@H](NC(=O)c1cccc(-c2ccccc2)n1)C(=O)N1CCN(C(=O)OCC(F)(F)F)CC1
> 100 µM

Request the reported IC50 associated with CCCCCOC(=O)N1CCN(C(=O)[C@H](CCC(=O)O)NC(=O)c2cc(N(C)CCOC)cc(-c3ccccc3)n2)CC1
> 100 µM

====

# measurement_target: P2Y purinoceptor 12 (Homo sapiens, UniProt Q9H244)
# Sequence (Q9H244 whole entry): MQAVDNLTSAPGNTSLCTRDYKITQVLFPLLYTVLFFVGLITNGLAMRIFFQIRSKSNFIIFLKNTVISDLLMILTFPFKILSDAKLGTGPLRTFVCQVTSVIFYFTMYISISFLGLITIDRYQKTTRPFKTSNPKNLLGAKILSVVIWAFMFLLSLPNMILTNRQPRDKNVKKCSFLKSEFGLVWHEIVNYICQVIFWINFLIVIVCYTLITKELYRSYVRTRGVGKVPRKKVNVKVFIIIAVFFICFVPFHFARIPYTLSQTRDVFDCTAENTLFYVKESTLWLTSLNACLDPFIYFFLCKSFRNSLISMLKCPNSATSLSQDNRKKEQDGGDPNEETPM
# assay_procedure: Displacement of [33P]ADP from human recombinant P2Y12 receptor expressed in CHO cells
For each of the molecules below, state its pKi.
Schema: pKi number; meaning minus log10 of the concentration expressed in molar units.

Request the reported pKi associated with CCCCCOC(=O)N1CCN(C(=O)[C@H](CCC(=O)O)NC(=O)c2cc(C(=O)NCC)cc(-c3ccccc3)n2)CC1
7.89

Request the reported pKi associated with CCCCCOC(=O)N1CCN(C(=O)[C@H](CCC(=O)O)NC(=O)c2cc(NC(=O)N3CCC(OC)CC3)cc(-c3ccccc3)n2)CC1
8.04

Request the reported pKi associated with O=C(O)CC[C@H](NC(=O)c1cccc(-c2ccccc2)n1)C(=O)N1CCN(C(=O)OC2CCCC2)CC1
7.33

Request the reported pKi associated with CCCCCOC(=O)N1CCN(C(=O)[C@H](CCC(=O)O)NC(=O)c2cc(OC3CCNCC3)cc(-c3ccccc3)n2)CC1
8.46

Request the reported pKi associated with CCOC(=O)N1CCN(C(=O)[C@H](CCC(=O)O)NC(=O)c2cc(N3CCOCC3)cc(-c3ccccc3)n2)CC1
7.41

Request the reported pKi associated with CCCCCOC(=O)N1CCN(C(=O)[C@H](CCC(=O)O)NC(=O)c2cc(OCC3CCN(C(=O)COC)CC3)cc(-c3ccccc3)n2)CC1
7.92

====

# measurement_target: P2Y purinoceptor 12 (Homo sapiens, UniProt Q9H244)
# assay_procedure: Displacement of [33P]ADP from human recombinant P2Y12 receptor expressed in CHO cells
readout: Ki

Request the reported Ki associated with CCOC(=O)N1CCN(C(=O)[C@H](CCC(=O)O)NC(=O)c2ccccn2)CC1
> 5400 nM

Request the reported Ki associated with COCC(=O)N1CCN(C(=O)[C@H](CCC(=O)O)NC(=O)c2cccc(-c3ccccc3)n2)CC1
> 3590 nM

Request the reported Ki associated with CCCCCOC(=O)N1CCN(C(=O)[C@H](CCC(=O)O)NC(=O)c2cc(OC(=O)N(C)CC3CCOCC3)cc(-c3ccccc3)n2)CC1
45 nM

Request the reported Ki associated with CCCCCOC(=O)N1CCN(C(=O)[C@H](CCC(=O)O)NC(=O)c2cc(O)cc(-c3ccccc3)n2)CC1
11 nM

Request the reported Ki associated with CCCCCOC(=O)N1CCN(C(=O)[C@H](CCC(=O)O)NC(=O)c2cc(C(=O)N3CCC(OC)CC3)cc(-c3ccccc3)n2)CC1
3.2 nM

Request the reported Ki associated with CC(C)C(=O)N1CCN(C(=O)[C@H](CCC(=O)O)NC(=O)c2cccc(-c3ccccc3)n2)CC1
> 3590 nM

Request the reported Ki associated with CCCCOC(=O)N1CCN(C(=O)[C@H](CCC(=O)O)NC(=O)c2cc(N(C)CCOC)cc(-c3ccccc3)n2)CC1
4 nM

====

# assay_procedure: Antiplatelet aggregation activity against adenosine diphosphate-induced human platelet rich plasma assessed as inhibition of platelet aggregation by turbidimetric method
# Format: functional
# conditions: Homo sapiens, Platelet, Plasma
For each of the molecules below, state its pIC50.
Schema: pIC50 number; meaning minus log10 of the concentration expressed in molar units.

Request the reported pIC50 associated with CCCCCOC(=O)N1CCN(C(=O)[C@H](CCC(=O)O)NC(=O)c2cc(CCC(=O)N(C)C)cc(-c3ccccc3)n2)CC1
5.54

Request the reported pIC50 associated with CCCCOC(=O)N1CCN(C(=O)[C@H](CCC(=O)O)NC(=O)c2cc(OC3CCNC3)cc(-c3ccccc3)n2)CC1 (some centres undefined)
5.59

Request the reported pIC50 associated with CCOC(=O)N1CCN(C(=O)[C@H](CCC(=O)O)NC(=O)c2cc(N3CCC(COC)CC3)cc(-c3ccccc3)n2)CC1
5.00

Request the reported pIC50 associated with CCCCOC(=O)N1CCN(C(=O)[C@H](CCC(=O)O)NC(=O)c2cc(OCC3CCN(C(=O)OCC)CC3)cc(-c3ccccc3)n2)CC1
5.40

Request the reported pIC50 associated with CCCCCOC(=O)N1CCN(C(=O)[C@H](CCC(=O)O)NC(=O)c2cc(OC(=O)N(C)CC3CCOCC3)cc(-c3ccccc3)n2)CC1
6.33

Request the reported pIC50 associated with CCOC(=O)N1CCN(C(=O)[C@H](CCC(=O)O)NC(=O)c2cc(N3CCCCC3)cc(-c3ccccc3)n2)CC1
4.54

Request the reported pIC50 associated with CCCCCOC(=O)N1CCN(C(=O)[C@H](CCC(=O)O)NC(=O)c2cc(C(=O)N3CCCCC3)cc(-c3ccccc3)n2)CC1
6.04

Request the reported pIC50 associated with CCCCOC(=O)N1CCN(C(=O)[C@H](CCC(=O)O)NC(=O)c2cc(OCCC3CCCCN3)cc(-c3ccccc3)n2)CC1 (some centres undefined)
6.09

Request the reported pIC50 associated with CCCCCCOC(=O)N1CCN(C(=O)[C@H](CCC(=O)O)NC(=O)c2cc(O)cc(-c3ccccc3)n2)CC1
4.68

Request the reported pIC50 associated with CCCCCOC(=O)N1CCN(C(=O)[C@H](CCC(=O)O)NC(=O)c2cc(NC(=O)OCC)cc(-c3ccccc3)n2)CC1
5.03

Request the reported pIC50 associated with CCCCCOC(=O)N1CCN(C(=O)[C@H](CCC(=O)O)NC(=O)c2cc(NCCOC)cc(-c3ccccc3)n2)CC1
5.49

====

For each of the molecules below, state its pKi.
# measurement_target: UniProt:Q9H244
# assay_procedure: Displacement of [33P]ADP from human recombinant P2Y12 receptor expressed in CHO cells
Schema: pKi number; meaning minus log10 of the concentration expressed in molar units.

Request the reported pKi associated with CCCCCOC(=O)N1CCN(C(=O)[C@H](CCC(=O)O)NC(=O)c2cc(N3CCC(N4CCCC4)CC3)cc(-c3ccccc3)n2)CC1
8.05

Request the reported pKi associated with CCCCCOC(=O)N1CCN(C(=O)[C@H](CCC(=O)O)NC(=O)c2cc(N(C)CCOC)cc(-c3ccccc3)n2)CC1
8.68

Request the reported pKi associated with CCCCCCOC(=O)N1CCN(C(=O)[C@H](CCC(=O)O)NC(=O)c2cc(OCCOC)cc(-c3ccccc3)n2)CC1
7.85

====

# assay_procedure: Half life in Sprague-Dawley rat at 2 mg/kg, iv and 5 mg/kg, po
# Assay type: ADME, organism-based
# conditions: in vivo
For each of the compounds below, state its half-life.
Respond numerically; units are min and should not be typed.

Request the reported half-life associated with CCOC(=O)N1CCN(C(=O)[C@H](CCC(=O)O)NC(=O)c2cc(N3CCCCC3)cc(-c3ccccc3)n2)CC1
24

Request the reported half-life associated with CCCCCOC(=O)N1CCN(C(=O)[C@H](CCC(=O)O)NC(=O)c2cc(CCCNCC(C)C)cc(-c3ccccc3)n2)CC1
36

Request the reported half-life associated with CCCCCOC(=O)N1CCN(C(=O)[C@H](CCC(=O)O)NC(=O)c2cc(OC3CCN(CCOC)CC3)cc(-c3ccccc3)n2)CC1
38.4

Request the reported half-life associated with CCCCCOC(=O)N1CCN(C(=O)[C@H](CCC(=O)O)NC(=O)c2cc(O)cc(-c3ccccc3)n2)CC1
30

Request the reported half-life associated with CCOC(=O)N1CCN(C(=O)[C@H](CCC(=O)O)NC(=O)c2cc(OCCOC)cc(-c3ccccc3)n2)CC1
12

Request the reported half-life associated with CCCCCOC(=O)N1CCN(C(=O)[C@H](CCC(=O)O)NC(=O)c2cc(N3CCC(N4CCCC4)CC3)cc(-c3ccccc3)n2)CC1
96

Request the reported half-life associated with CCCCCOC(=O)N1CCN(C(=O)[C@H](CCC(=O)O)NC(=O)c2cc(OCC3CCNCC3)cc(-c3ccccc3)n2)CC1
12

Request the reported half-life associated with CCCCCOC(=O)N1CCN(C(=O)[C@H](CCC(=O)O)NC(=O)c2cc(C(=O)N3CCC(N(C)C)CC3)cc(-c3ccccc3)n2)CC1
12
